- Assay System: Nav 1.7 (Homo sapiens)
- Construct: expressed in transfected cells
- Sequence (Q15858 whole entry): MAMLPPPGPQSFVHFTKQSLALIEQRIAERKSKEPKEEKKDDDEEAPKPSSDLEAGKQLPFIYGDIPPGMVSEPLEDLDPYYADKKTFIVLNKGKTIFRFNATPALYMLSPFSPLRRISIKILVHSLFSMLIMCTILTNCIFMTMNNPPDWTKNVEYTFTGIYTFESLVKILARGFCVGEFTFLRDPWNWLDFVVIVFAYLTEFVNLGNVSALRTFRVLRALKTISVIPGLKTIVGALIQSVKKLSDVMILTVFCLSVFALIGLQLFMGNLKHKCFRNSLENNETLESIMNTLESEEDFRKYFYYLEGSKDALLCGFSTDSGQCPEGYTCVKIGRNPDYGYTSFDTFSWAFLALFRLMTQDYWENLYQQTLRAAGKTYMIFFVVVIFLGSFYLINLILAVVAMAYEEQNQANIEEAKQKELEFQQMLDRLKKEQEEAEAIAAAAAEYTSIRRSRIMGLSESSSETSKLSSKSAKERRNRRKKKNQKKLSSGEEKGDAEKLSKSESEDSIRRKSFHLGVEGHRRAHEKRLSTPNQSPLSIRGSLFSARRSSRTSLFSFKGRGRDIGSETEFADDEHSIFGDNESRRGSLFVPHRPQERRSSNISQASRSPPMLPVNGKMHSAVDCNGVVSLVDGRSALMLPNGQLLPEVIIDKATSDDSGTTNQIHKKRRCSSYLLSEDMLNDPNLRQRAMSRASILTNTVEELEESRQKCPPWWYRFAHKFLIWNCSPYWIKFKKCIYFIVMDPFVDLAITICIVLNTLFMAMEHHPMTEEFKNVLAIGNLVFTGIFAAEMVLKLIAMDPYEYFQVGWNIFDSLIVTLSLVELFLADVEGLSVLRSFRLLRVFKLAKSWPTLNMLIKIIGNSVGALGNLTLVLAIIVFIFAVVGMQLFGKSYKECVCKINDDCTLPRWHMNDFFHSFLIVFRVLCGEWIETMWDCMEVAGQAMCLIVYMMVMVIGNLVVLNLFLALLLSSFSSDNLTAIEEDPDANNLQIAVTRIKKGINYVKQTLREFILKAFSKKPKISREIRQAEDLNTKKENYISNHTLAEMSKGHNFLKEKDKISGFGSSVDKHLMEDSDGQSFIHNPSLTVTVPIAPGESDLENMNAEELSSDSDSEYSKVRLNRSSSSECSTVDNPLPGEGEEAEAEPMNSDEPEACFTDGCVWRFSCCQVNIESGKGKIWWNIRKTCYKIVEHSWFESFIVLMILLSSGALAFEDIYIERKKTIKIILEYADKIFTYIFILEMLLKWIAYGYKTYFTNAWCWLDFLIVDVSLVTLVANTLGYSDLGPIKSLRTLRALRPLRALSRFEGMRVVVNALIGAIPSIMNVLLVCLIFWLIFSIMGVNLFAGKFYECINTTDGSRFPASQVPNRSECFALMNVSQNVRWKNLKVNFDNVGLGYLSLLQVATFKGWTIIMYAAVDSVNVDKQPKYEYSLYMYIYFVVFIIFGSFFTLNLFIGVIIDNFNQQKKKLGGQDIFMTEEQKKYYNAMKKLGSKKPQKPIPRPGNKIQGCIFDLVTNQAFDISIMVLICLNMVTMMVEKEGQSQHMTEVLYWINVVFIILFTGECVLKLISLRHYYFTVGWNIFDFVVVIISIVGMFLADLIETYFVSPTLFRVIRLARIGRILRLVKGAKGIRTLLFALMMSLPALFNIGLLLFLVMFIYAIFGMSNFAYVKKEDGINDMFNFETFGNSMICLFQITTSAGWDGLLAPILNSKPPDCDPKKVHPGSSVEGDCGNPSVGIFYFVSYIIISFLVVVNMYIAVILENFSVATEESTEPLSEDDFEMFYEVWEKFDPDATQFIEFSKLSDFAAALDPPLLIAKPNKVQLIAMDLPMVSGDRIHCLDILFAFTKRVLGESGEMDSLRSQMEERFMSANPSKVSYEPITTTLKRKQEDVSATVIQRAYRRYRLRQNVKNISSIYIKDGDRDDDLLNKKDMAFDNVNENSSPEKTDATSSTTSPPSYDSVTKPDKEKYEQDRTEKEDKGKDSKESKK
- Test Details: Whole-cell voltage clamp electrophysiology, automated patch clamp (marker c in Table of Examples)
- Format: cell-based
- Assay Conditions: marker c = Automated patch clamp data; read-out: Nav 1.7 activity
Task for the reader: assign each of the following molecules its reported pIC50.
Convention used: pIC50 is expressed as -log10 of the molar concentration.

# molecule Nc1nc(Nc2cccc(F)c2)nc(-c2noc(C(=O)NC3CCC3)n2)n1 ; its pIC50 = 5.82

The reported pIC50 of the molecule CN(c1ccccc1)c1nc(N)nc(-c2noc(C3CCC(NC(=O)OC(C)(C)C)CC3)n2)n1 (centres unmarked) was 6.16

Measured pIC50 of CN(c1ccccc1)c1nc(N)nc(-c2noc(N3CCC(Oc4ccccc4)CC3)n2)n1 : 6.59

The recorded pIC50 for entry CN(c1ccccc1)c1nc(N)nc(-c2noc([C@H]3CCCN3S(=O)(=O)CC(F)(F)F)n2)n1 equals 6.54

So for CN(c1cccc(F)c1)c1nc(N)nc(-c2noc(-c3ncccc3F)n2)n1 , the logged pIC50 turned out to be 6.44

Notebook: Nc1nc(Nc2cc(Cl)ccc2F)nc(-c2noc(-c3ccccn3)n2)n1 , pIC50 read as 6.36

Quick note, pIC50 for CN(c1ccccc1)c1nc(N)nc(-c2noc(N3C[C@@H]4[C@@H](COC5CCCC5)[C@@H]4C3)n2)n1 landed at 6.21
